assay: Peptide solubility by turbidity of peptide suspensions at 550 nm; conditions: Experiment #1; score 1 to 5, turbidity at 550 nm
No end group written: not given here.
Hi there, I'd appreciate the recorded Solubility for every entry that follows.
Answers are plain numbers.

Count: 3. Required value per item: Solubility.
1. FAEKFKEAVKDYFAKFWD P AAEKLKEAVKDYFAKLWD-pyrenebutyric acid [NSPr-pyrene]
2. FAEKFKEAVKDYFAKFWDGAAEKLKEAVKDYFAKLWD [NSPr-G, FAEKFKEAVKDYFAKFWD G AAEKLKEAVKDYFAKLWD]
3. FAEKFKEAVKPYFAKFWDPAAEKLKEAVKPYFAKLWD [NSPr-3P, FAEKFKEAVKPYFAKFWD P AAEKLKEAVKPYFAKLWD]

5
5
5

So what's the measured Solubility for this one? Ac-DWLKAFYDKVAEKLKEAAPDWFKAFYDKVAEKFKEAF-NH2 [Ac-NSP-NH2]
1

* * *

Hi there, I'd appreciate the recorded Solubility (/5) for every entry that follows.
test: Peptide solubility by turbidity of peptide suspensions at 550 nm; conditions: Experiment #2; score 1 to 5
No end group written: not given here.
One number for each entry.

FAERFREAVRDYFARFWDPAAERLREAVRDYFARLWD [Pos Switch, FAERFREAVRDYFARFWD P AAERLREAVRDYFARLWD]: 5

So what's the measured Solubility (/5) for this one? FAEKFKEAVKDYFAKFWD P AAEKLKEAVKDYFAKLWD-pyrenebutyric acid [NSPr-pyrene]
5

* * *

experiment: Peptide solubility by turbidity of peptide suspensions at 550 nm; conditions: Experiment #2; score 1 to 5
No end group written: not given here.
measured-property: Solubility (/5)

Guide cases for Solubility (/5), answers given:
FAEKFKEAVKDYFAKFWDPAAEKFKEAVKDYFAKLFD [Peptide 4F-3F, FAEKFKEAVKDYFAKFWD P AAEKFKEAVKDYFAKLFD]: 4 /5
DWLKAFYDKVAEKLKEAAPDWFKAFYDKVAEKFKEAF [NSP, DWLKAFYDKVAEKLKEAA P DWFKAFYDKVAEKFKEAF]: 3 /5

Turning now to a further record.
So what's the measured Solubility (/5) for this one? FAEKLKEAVKDYFAKLWDPFAEKLKEAVKDYFAKLWD [Peptide 2F-2F, FAEKLKEAVKDYFAKLWD P FAEKLKEAVKDYFAKLWD]
4 /5
